Data credit: patent US12215173B2

The molecules listed here are annotated with their EC50.
Target: Opioid Kappa Receptor (recombinant human, HEK293 cells) (Homo sapiens (Human))
Assay: cell-based
Settings: read-out: EC50
Dear colleague, please return just the value in nM, with no unit written.

Which EC50 value belongs to CC(C)C[C@@H](NC(=O)[C@@H](Cc1ccccc1)NC(=O)[C@H](N)Cc1ccccc1)C(=O)N[C@H](CCCCN)C(=O)N1CCC(N)(C(=O)OCCN)C1 (some centres unmarked) [Compound 55] ?
9.36

Any idea what EC50 was measured for CC(C)C[C@@H](NC(=O)[C@@H](Cc1ccccc1)NC(=O)[C@H](N)Cc1ccccc1)C(=O)N[C@H](CCCCN)C(=O)NCc1cccnc1C(=O)O [Compound 13-7] ?
24.7

Which EC50 is listed for COC(=O)/C=C/C(=O)N1CCN(C(=O)[C@@H](CCCCN)NC(=O)[C@@H](CC(C)C)NC(=O)[C@@H](Cc2ccccc2)NC(=O)[C@H](N)Cc2ccccc2)CC1 [Compound 13-24] ?
31.5

Find the recorded EC50 belonging to CC(C)C[C@@H](NC(=O)[C@@H](Cc1ccccc1)NC(=O)[C@H](N)Cc1ccccc1)C(=O)N[C@H](CCCCN)C(=O)N1CCNC(=O)C1 [Compound 13-14] and report it.
12.9

Entry under review: CCOC(=O)C(=O)NC1CCN(C(=O)[C@@H](CCCCN)NC(=O)[C@@H](CC(C)C)NC(=O)[C@@H](Cc2ccccc2)NC(=O)[C@H](N)Cc2ccccc2)CC1 [Compound 13-31] . Reported EC50?
17.9

###

Biological target: recombinant human mu (MOR) opioid receptor (Homo sapiens (Human), UniProt P35372)
Experiment: Opioid receptor radioligand binding assay, MOR
Conditions: read-out: MOR, IC50
pIC50: −log10 of the molar value.
measured_property: pIC50

What does the record list as pIC50 for "CC(C)C[C@@H](NC(=O)[C@@H](Cc1ccccc1)NC(=O)[C@H](N)Cc1ccccc1)C(=O)N[C@H](CCCCN)C(=O)N1CCC2(CC1)NC(=O)NC2=O" ?
< 5.00

###

Target: recombinant human kappa (KOR) opioid receptor (Homo sapiens (Human), UniProt P41145)
Assay: biochemical
Assay type: binding
Details: HEK293 cell membranes, 0.5 nM [3H]diprenorphine
Square brackets hold non-standard residues; d marks the D form. Peptide text beside a SMILES is read from it. * marks the point of attachment. Pyrrolidinyl(3-NH2,3-CO2Me) = COC(=O)C1(N)CCN(*)C1; dTic = O=C(O)[C@H]1Cc2ccccc2CN1
measured_property: pIC50
Quick note: pIC50 means taking -log10 of the concentration in moles per liter.

Recorded results for 4 compounds are shown here.
CCNC(=O)C(=O)N1CCN(C(=O)[C@@H](CCCCN)NC(=O)[C@@H](CC(C)C)NC(=O)[C@@H](Cc2ccccc2)NC(=O)[C@H](N)Cc2ccccc2)CC1; 9.48
COC(=O)C1(N)CCN(C(=O)[C@@H](CCCCN)NC(=O)[C@@H](CC(C)C)NC(=O)[C@@H](Cc2ccccc2)NC(=O)[C@H]2Cc3ccccc3CN2)C1 (stereo partly drawn) [Compound 168] (H-[dTic][dF][dL][dK]-{Pyrrolidinyl(3-NH2,3-CO2Me)}); 8.37
COCCOCCNC(=O)[C@@H](CCCCN)NC(=O)[C@@H](CC(C)C)NC(=O)[C@@H](Cc1ccccc1)NC(=O)[C@H](N)Cc1ccccc1; 8.55
CCOC(=O)C1(N)CCN(C(=O)[C@@H](CCCCN)NC(=O)[C@@H](CC(C)C)NC(=O)[C@@H](Cc2ccccc2)NC(=O)[C@H](N)Cc2ccccc2)C1 (some centres unmarked); 9.72

Reported pIC50, compound "CC(C)C[C@@H](NC(=O)[C@@H](Cc1ccccc1)NC(=O)[C@H](N)Cc1ccccc1)C(=O)N[C@H](CCCCN)C(=O)NC1CCN(C(=O)C(N)=O)CC1" : ____
8.48
